Target: B2-AR (Homo sapiens, UniProt P07550)
Construct: expressed in transfected cells; host or cells: CHO-K1
Sequence (P07550 whole entry, species assumed): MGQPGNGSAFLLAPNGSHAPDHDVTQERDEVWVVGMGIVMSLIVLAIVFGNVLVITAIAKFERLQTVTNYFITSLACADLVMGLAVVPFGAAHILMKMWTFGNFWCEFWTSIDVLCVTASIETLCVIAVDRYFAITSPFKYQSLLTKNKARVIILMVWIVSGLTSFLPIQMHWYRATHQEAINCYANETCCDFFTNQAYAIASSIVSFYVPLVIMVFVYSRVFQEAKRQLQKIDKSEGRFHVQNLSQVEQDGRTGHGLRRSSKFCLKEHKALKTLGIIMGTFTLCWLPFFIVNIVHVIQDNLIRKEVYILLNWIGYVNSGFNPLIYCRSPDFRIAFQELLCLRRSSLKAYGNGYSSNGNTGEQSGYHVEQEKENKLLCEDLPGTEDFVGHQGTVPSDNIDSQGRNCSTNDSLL
Test: cAMP Gs dynamic HTRF assay, cells expressing beta-adrenergic receptor (CHO-K1), B2-AR
Type: cell-based
Details: CHO-K1 cells, relative to full agonist isoproterenol; read-out: Emax (% iso) (%) [B2-AR]
quantity_kind: Emax

Solved cases (2 shown):
I looked up `CC(C)CNC[C@H](O)c1ccc(Cl)c2[nH]ncc12` and its Emax for B2-AR (Homo sapiens, UniProt P07550) was 70 to 90%

I looked up `COc1ccc(C[C@@H](C)NC[C@H](O)c2ccc(F)c3[nH]ncc23)cc1` and its Emax for B2-AR (Homo sapiens, UniProt P07550) was > 90%

***
I looked up `CCC(C)(C)NC[C@H](O)c1cc(F)cc2[nH]ncc12` and its Emax for B2-AR (Homo sapiens, UniProt P07550) was > 90%

I looked up `Cc1cc([C@@H](O)CNC2CC2)c2cn[nH]c2c1` and its Emax for B2-AR (Homo sapiens, UniProt P07550) was 70 to 90%

I looked up `CC(C)(CO)NC[C@H](O)c1cccc2[nH]cc(F)c12` and its Emax for B2-AR (Homo sapiens, UniProt P07550) was > 90%

I looked up `N#Cc1cc([C@@H](O)CNC2CCC2)c2cn[nH]c2c1` and its Emax for B2-AR (Homo sapiens, UniProt P07550) was > 90%

I looked up `CC(C)CNC[C@H](O)c1cccc2[nH]nc(Cl)c12` and its Emax for B2-AR (Homo sapiens, UniProt P07550) was 70 to 90%

I looked up `CC(C)(C)C(C)(C)NC[C@H](O)c1ccc(F)c2[nH]ncc12` and its Emax for B2-AR (Homo sapiens, UniProt P07550) was > 90%

I looked up `CC[C@H](C)NC[C@H](O)c1cccc2[nH]nc(F)c12` and its Emax for B2-AR (Homo sapiens, UniProt P07550) was 70 to 90%

I looked up `CC(C)(C)CNC[C@H](O)c1ccc(Cl)c2[nH]ncc12` and its Emax for B2-AR (Homo sapiens, UniProt P07550) was 70 to 90%

I looked up `CC1(N[C@@H](CO)c2cncc3[nH]ncc23)CC1` and its Emax for B2-AR (Homo sapiens, UniProt P07550) was 70 to 90%

I looked up `CC(C)(NC[C@H](O)c1ccc(F)c2[nH]ncc12)C1CC1` and its Emax for B2-AR (Homo sapiens, UniProt P07550) was > 90%

I looked up `CC(C)(C)CNC[C@H](O)c1cccc2c1C(F)(F)C(=O)N2` and its Emax for B2-AR (Homo sapiens, UniProt P07550) was > 90%

I looked up `CC(C)(C)CNC[C@H](O)c1ccc(F)c2[nH]ncc12` and its Emax for B2-AR (Homo sapiens, UniProt P07550) was 70 to 90%

I looked up `C[C@H](NC[C@H](O)c1cccc2c1C(F)(F)C(=O)N2)C(C)(C)C` and its Emax for B2-AR (Homo sapiens, UniProt P07550) was > 90%

I looked up `O[C@@H](CNC1CC1)c1cncc2[nH]ncc12` and its Emax for B2-AR (Homo sapiens, UniProt P07550) was > 90%

I looked up `Cc1ccc2cc([C@@H](O)CNC(C)(C)C)ccc2n1` and its Emax for B2-AR (Homo sapiens, UniProt P07550) was < 50%

I looked up `CC(C)(CO)NC[C@H](O)c1cncc2[nH]ncc12` and its Emax for B2-AR (Homo sapiens, UniProt P07550) was > 90%

Where do these numbers come from? They come from patent US20240270701A1.
